Where these numbers come from: patent US20140087995A1

Tested On: T1, human amylin receptor (amylin 3(a) receptor: human calcitonin receptor plus RAMP-3) (human, UniProt P30988 25-474; O60896 24-148, limits assumed)
T1 sequence (looked up) 1: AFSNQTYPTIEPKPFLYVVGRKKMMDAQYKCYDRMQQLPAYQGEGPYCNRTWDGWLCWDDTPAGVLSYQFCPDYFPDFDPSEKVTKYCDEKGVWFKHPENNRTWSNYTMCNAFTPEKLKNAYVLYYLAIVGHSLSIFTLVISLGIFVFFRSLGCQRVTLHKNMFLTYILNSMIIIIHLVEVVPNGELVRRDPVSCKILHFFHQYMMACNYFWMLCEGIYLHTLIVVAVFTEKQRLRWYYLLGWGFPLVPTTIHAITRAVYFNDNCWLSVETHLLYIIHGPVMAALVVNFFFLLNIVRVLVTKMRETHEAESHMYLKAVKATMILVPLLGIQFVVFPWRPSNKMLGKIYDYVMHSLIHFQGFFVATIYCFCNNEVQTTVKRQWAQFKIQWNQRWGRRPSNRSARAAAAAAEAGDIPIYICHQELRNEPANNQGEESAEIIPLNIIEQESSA
T1 sequence (looked up) 2: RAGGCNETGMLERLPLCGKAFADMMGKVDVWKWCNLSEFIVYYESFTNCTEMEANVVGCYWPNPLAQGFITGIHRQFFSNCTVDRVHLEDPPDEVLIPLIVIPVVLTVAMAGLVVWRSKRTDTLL
Run Description: cell-based or functional assay
Please respond with reported hAmylin-R funct. EC50 for every item in the list.
Answer with the value and then the unit.

These recorded examples may help you get a feel for the data.
KCNTATCATQRLAEFLRHSSPNFGAIPSSTNVGSNTY (C20 diacid-gGlu-2xOEG on the alpha amino group of the N-terminal residue; Cys2-Cys7 disulfide and C-terminal amide as in human amylin, also called compound 19) : 0.307 nM
KCNTATCATQRLANFLRHSSPNFGAIPSSTNVGHNTY (C20 diacid-gGlu on the alpha amino group of the N-terminal residue; Cys2-Cys7 disulfide and C-terminal amide as in human amylin, also called compound 40) [N^α1-[(4S)-4-carboxy-4-(19-carboxynonadecanoylamino)butanoyl]-[Arg17,Pro21,Pro27,His34]-h-amylin] : 0.164 nM

# next binder below
Form field hAmylin-R funct. EC50, entry KCNTATCATQRLANFLRHSSPNFGAIPSSTNVGSNTY (C20 diacid-gGlu-2xOEG on the alpha amino group of the N-terminal residue; Cys2-Cys7 disulfide and C-terminal amide as in human amylin, also called compound 24) : 0.433 nM
